Hello, the source for this data is ChEMBL document CHEMBL4477252, in case you need it.

Target: Ephrin type-A receptor 8 (Homo sapiens, UniProt P29322)
Sequence (P29322 whole entry): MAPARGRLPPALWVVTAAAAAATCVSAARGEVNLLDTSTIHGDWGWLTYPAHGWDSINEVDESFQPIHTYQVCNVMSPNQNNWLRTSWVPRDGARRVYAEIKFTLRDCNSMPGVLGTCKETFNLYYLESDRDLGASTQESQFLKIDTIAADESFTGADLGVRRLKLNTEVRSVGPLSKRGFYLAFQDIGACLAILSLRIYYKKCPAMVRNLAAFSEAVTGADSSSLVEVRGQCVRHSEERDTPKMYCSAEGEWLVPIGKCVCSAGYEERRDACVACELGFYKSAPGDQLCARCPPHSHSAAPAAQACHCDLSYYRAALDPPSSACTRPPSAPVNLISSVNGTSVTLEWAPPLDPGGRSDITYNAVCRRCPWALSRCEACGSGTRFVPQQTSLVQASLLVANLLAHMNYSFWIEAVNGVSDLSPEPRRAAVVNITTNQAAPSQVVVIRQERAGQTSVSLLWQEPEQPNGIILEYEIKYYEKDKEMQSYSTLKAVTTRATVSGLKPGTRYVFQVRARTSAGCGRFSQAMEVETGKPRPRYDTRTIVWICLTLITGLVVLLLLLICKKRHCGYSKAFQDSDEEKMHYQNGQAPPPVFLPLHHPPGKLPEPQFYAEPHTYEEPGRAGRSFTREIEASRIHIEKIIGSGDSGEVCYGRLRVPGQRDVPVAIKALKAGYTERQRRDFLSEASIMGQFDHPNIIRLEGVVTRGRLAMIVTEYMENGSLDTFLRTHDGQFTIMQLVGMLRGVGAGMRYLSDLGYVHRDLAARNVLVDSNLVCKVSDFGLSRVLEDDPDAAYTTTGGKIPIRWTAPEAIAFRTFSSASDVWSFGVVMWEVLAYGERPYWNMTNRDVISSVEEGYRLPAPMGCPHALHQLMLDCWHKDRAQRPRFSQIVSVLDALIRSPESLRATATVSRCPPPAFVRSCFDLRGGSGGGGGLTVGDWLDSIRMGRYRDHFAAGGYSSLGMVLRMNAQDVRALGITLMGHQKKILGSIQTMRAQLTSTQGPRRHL
Experiment: Inhibition of recombinant human GST-tagged cytoplasmic EPHA8 expressed in baculovirus expression system by Z'-LYTE assay
endpointLabel: IC50

| molecule | endpointValue |
| --- | --- |
| Cn1cc(-c2cnc3c(-c4csc(C(=O)N[C@@H]5CCCC[C@@H]5N)c4)cnn3c2)cn1 (racemic) | 2.9 nM |
| Cc1sc(C(=O)N[C@@H]2[C@H](N)CCCC2(F)F)cc1-c1cnn2cc(Cl)cnc12 | 16000 nM |
| Cn1cc(-c2cnc3c(-c4csc(C(=O)NCC(F)(F)F)c4)cnn3c2)cn1 | 29 nM |
| O=C(NCC(F)(F)F)c1cc(-c2cnn3cc(-c4ccc(OCCN5CCCCC5)cc4)cnc23)cs1 | 21 nM |

* * *

Target: Ephrin type-A receptor 3 (Homo sapiens)
Sequence (P29320 whole entry): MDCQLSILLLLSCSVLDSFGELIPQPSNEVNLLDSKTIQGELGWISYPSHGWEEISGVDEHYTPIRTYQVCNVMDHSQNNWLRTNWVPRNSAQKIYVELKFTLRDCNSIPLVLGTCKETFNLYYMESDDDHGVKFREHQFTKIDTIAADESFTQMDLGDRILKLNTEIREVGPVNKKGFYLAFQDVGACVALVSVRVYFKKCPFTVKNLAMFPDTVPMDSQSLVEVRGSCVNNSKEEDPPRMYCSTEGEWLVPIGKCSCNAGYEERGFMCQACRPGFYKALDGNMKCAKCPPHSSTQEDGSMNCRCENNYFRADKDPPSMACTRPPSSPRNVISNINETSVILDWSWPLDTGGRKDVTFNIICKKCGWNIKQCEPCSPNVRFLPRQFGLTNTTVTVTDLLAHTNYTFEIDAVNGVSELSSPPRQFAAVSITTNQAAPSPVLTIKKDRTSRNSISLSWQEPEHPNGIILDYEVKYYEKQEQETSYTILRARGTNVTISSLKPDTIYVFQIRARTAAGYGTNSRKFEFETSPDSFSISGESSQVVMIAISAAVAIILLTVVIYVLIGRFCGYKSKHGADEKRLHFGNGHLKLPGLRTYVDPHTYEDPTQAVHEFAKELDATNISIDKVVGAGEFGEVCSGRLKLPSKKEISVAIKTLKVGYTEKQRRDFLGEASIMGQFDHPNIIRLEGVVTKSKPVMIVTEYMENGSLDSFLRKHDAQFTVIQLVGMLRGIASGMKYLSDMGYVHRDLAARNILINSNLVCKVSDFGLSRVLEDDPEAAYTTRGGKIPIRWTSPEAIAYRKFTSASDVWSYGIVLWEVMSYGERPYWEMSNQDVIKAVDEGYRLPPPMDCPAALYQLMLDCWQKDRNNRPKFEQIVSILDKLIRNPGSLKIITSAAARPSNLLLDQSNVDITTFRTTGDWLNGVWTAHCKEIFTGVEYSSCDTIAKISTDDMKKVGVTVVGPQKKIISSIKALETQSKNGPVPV
Assay: Inhibition of recombinant human His-tagged cytoplasmic EPHA3 expressed in baculovirus expression system by LanthaScreen assay
endpointLabel: IC50 (µM)

| compound | resultUnit | op | endpointValue |
| --- | --- | --- | --- |
| Cn1cc(-c2cnc3c(-c4csc(C(=O)NCC(F)(F)F)c4)cnn3c2)cn1 | µM | = | 0.052 |
| Cc1sc(C(=O)N[C@@H]2[C@H](N)CCCC2(F)F)cc1-c1cnn2cc(Cl)cnc12 | µM | > | 100 |
| Cn1cc(-c2cnc3c(-c4csc(C(=O)N[C@@H]5CCCC[C@@H]5N)c4)cnn3c2)cn1 (racemic) | µM | = | 0.022 |
| O=C(NCC(F)(F)F)c1cc(-c2cnn3cc(-c4ccc(OCCN5CCCCC5)cc4)cnc23)cs1 | µM | = | 0.18 |

* * *

Target: PI3-kinase p110-delta/p85-alpha (Homo sapiens, UniProt O00329)
Sequence (P27986 whole entry): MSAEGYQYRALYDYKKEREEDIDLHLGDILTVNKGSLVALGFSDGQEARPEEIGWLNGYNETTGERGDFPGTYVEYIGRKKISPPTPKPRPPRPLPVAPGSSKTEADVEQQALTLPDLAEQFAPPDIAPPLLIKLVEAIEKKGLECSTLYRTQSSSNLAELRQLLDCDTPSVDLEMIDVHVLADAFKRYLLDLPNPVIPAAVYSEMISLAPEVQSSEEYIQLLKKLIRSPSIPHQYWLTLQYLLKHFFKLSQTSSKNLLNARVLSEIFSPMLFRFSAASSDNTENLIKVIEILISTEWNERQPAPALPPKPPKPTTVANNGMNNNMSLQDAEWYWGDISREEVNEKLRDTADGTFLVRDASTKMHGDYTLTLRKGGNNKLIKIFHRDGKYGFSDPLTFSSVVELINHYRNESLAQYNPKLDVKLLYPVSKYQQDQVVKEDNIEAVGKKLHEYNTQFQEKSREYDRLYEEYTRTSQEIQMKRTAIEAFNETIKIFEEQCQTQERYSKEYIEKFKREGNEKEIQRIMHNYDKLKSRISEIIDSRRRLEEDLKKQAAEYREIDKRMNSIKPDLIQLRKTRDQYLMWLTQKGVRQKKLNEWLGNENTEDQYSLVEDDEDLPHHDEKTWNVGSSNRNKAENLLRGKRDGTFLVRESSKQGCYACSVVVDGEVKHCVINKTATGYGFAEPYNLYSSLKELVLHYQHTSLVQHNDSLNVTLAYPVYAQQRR
Sequence (O00329 whole entry): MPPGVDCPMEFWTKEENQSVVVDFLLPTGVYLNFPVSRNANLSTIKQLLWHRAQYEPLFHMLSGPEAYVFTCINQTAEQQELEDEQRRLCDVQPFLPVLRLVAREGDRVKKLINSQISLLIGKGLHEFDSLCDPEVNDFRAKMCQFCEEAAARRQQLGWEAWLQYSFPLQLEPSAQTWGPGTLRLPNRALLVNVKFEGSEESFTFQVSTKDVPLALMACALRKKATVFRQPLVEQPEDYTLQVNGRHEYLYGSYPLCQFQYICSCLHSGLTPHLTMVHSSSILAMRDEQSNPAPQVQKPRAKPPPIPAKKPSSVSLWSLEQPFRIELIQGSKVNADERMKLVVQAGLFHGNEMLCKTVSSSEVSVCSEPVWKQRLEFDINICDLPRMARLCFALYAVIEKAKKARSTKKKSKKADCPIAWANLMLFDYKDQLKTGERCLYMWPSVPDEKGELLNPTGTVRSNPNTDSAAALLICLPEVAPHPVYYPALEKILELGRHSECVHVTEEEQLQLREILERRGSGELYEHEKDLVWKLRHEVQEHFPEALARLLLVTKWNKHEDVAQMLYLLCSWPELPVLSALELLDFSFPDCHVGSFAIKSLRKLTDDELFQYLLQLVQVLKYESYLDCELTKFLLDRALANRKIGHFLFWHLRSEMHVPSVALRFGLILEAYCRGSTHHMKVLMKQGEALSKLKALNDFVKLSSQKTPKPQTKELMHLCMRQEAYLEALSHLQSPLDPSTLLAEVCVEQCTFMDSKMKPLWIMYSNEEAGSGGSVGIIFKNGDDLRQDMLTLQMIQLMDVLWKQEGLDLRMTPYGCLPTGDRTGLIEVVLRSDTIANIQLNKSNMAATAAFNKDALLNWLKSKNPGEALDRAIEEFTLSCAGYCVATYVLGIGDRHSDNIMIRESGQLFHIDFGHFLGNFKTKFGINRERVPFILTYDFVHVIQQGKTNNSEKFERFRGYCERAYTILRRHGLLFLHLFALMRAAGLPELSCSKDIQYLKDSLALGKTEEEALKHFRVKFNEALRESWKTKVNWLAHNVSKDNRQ
Test: Inhibition of full-length recombinant human His-tagged PIK3P110D/P85A expressed in baculovirus expression system by Adapta assay
endpointLabel: IC50 (µM)

| compound | resultUnit | op | endpointValue |
| --- | --- | --- | --- |
| Cc1sc(C(=O)N[C@@H]2[C@H](N)CCCC2(F)F)cc1-c1cnn2cc(Cl)cnc12 | µM | > | 100 |
| Cn1cc(-c2cnc3c(-c4csc(C(=O)NCC(F)(F)F)c4)cnn3c2)cn1 | µM | = | 1.5 |
| O=C(NCC(F)(F)F)c1cc(-c2cnn3cc(-c4ccc(OCCN5CCCCC5)cc4)cnc23)cs1 | µM | = | 55 |
| Cn1cc(-c2cnc3c(-c4csc(C(=O)N[C@@H]5CCCC[C@@H]5N)c4)cnn3c2)cn1 (racemic) | µM | = | 3.3 |

* * *

Molecular target: Serine/threonine-protein kinase pim-1 (Homo sapiens, UniProt P11309)
Sequence (P11309 whole entry): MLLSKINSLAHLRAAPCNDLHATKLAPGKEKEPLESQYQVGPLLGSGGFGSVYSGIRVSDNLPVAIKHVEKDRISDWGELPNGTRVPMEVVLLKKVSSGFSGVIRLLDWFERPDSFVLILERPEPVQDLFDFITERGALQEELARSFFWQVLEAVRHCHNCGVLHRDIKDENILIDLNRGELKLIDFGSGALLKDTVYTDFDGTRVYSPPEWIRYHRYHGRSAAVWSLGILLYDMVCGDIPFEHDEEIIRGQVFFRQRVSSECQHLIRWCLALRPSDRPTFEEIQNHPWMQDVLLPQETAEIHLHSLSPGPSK
Assay: Inhibition of full-length recombinant human His-tagged PIM1 expressed in baculovirus expression system by Z'-LYTE assay
pIC50: −log10 of the molar value.
endpointLabel: pIC50

| compound | endpointValue |
| --- | --- |
| Cc1sc(C(=O)N[C@@H]2[C@H](N)CCCC2(F)F)cc1-c1cnn2cc(Cl)cnc12 | 5.80 |
| Cn1cc(-c2cnc3c(-c4csc(C(=O)N[C@@H]5CCCC[C@@H]5N)c4)cnn3c2)cn1 (racemic) | 5.55 |
| Cn1cc(-c2cnc3c(-c4csc(C(=O)NCC(F)(F)F)c4)cnn3c2)cn1 | 5.00 |
| O=C(NCC(F)(F)F)c1cc(-c2cnn3cc(-c4ccc(OCCN5CCCCC5)cc4)cnc23)cs1 | 6.23 |

* * *

Target: Serine/threonine-protein kinase Nek6 (Homo sapiens)
Sequence (Q9HC98 whole entry): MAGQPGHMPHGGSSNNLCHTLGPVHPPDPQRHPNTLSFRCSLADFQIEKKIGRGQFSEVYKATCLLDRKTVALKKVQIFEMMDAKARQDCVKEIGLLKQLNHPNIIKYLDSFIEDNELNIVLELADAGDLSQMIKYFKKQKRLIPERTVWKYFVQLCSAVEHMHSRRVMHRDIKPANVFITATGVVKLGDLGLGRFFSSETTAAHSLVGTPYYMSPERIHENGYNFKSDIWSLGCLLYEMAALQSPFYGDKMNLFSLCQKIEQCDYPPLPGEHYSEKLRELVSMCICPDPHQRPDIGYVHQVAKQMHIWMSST
Assay: Inhibition of full-length recombinant human GST-tagged NEK6 expressed in insect cells by Z'-LYTE assay
pIC50: −log10 of the molar value.
Each record here notes measured pIC50.

| molecule | pIC50 |
| --- | --- |
| O=C(NCC(F)(F)F)c1cc(-c2cnn3cc(-c4ccc(OCCN5CCCCC5)cc4)cnc23)cs1 | 5.06 |
| Cn1cc(-c2cnc3c(-c4csc(C(=O)NCC(F)(F)F)c4)cnn3c2)cn1 | 5.23 |
| Cc1sc(C(=O)N[C@@H]2[C@H](N)CCCC2(F)F)cc1-c1cnn2cc(Cl)cnc12 | 4.77 |
| Cn1cc(-c2cnc3c(-c4csc(C(=O)N[C@@H]5CCCC[C@@H]5N)c4)cnn3c2)cn1 (racemic) | 5.59 |

* * *

Each record here notes measured pIC50.
Molecular target: Serine/threonine-protein kinase Nek2 (Homo sapiens)
Sequence (P51955 whole entry): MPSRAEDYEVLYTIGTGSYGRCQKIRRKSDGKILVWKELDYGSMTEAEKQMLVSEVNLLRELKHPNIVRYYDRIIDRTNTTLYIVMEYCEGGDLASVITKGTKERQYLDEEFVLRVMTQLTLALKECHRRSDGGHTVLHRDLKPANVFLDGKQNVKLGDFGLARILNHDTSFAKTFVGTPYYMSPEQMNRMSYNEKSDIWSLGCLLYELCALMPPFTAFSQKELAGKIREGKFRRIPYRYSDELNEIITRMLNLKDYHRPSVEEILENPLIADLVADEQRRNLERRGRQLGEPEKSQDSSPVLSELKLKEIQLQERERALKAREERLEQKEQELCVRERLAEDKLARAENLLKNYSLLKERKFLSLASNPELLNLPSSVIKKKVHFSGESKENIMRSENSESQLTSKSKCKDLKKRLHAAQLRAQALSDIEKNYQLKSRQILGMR
Assay: Inhibition of full-length recombinant human His-tagged NEK2 expressed in baculovirus expression system by Z'-LYTE assay
pIC50: −log10 of the molar value.
endpointLabel: pIC50

| compound | endpointLabel | op | endpointValue |
| --- | --- | --- | --- |
| Cn1cc(-c2cnc3c(-c4csc(C(=O)NCC(F)(F)F)c4)cnn3c2)cn1 | pIC50 | < | 4.00 |
| Cc1sc(C(=O)N[C@@H]2[C@H](N)CCCC2(F)F)cc1-c1cnn2cc(Cl)cnc12 | pIC50 | = | 4.89 |
| Cn1cc(-c2cnc3c(-c4csc(C(=O)N[C@@H]5CCCC[C@@H]5N)c4)cnn3c2)cn1 (racemic) | pIC50 | = | 6.02 |
| O=C(NCC(F)(F)F)c1cc(-c2cnn3cc(-c4ccc(OCCN5CCCCC5)cc4)cnc23)cs1 | pIC50 | = | 4.80 |

* * *

Target: Ephrin type-B receptor 2 (Homo sapiens, UniProt P29323)
Sequence (P29323 whole entry): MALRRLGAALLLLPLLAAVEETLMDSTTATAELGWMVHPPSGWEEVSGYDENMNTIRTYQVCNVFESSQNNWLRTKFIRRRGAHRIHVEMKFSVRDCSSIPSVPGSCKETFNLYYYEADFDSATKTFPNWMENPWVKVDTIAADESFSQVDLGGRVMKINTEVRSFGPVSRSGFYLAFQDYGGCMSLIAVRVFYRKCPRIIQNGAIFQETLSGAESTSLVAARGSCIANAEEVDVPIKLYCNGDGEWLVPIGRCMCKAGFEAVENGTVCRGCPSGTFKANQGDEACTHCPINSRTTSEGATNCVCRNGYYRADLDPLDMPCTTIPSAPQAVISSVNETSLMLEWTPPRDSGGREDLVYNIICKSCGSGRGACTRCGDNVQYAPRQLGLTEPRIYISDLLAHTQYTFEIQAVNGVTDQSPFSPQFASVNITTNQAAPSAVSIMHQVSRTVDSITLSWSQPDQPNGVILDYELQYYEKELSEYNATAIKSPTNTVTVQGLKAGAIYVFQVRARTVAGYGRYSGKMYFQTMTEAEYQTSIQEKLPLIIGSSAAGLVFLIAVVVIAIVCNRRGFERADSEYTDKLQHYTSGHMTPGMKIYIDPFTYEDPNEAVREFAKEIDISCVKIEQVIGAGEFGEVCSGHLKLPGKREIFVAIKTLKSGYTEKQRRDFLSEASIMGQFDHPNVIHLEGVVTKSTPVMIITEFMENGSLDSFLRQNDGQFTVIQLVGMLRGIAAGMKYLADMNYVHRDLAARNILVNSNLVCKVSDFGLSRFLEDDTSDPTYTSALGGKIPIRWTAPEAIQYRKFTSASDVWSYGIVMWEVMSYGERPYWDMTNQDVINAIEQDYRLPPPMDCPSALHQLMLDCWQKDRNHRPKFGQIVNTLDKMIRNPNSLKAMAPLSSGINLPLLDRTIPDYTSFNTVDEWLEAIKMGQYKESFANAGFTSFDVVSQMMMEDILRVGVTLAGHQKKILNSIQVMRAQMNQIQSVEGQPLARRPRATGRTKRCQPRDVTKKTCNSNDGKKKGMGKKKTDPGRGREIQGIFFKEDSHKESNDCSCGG
Experiment: Inhibition of recombinant human GST-tagged cytoplasmic EPHB2 expressed in baculovirus expression system by Z'-LYTE assay
Each record here notes measured IC50.

| compound | targetSystem | op | IC50 (nM) |
| --- | --- | --- | --- |
| Cn1cc(-c2cnc3c(-c4csc(C(=O)NCC(F)(F)F)c4)cnn3c2)cn1 | Ephrin type-B receptor 2 (Homo sapiens, UniProt P29323) | = | 36 |
| Cc1sc(C(=O)N[C@@H]2[C@H](N)CCCC2(F)F)cc1-c1cnn2cc(Cl)cnc12 | Ephrin type-B receptor 2 (Homo sapiens, UniProt P29323) | = | 3800 |
| O=C(NCC(F)(F)F)c1cc(-c2cnn3cc(-c4ccc(OCCN5CCCCC5)cc4)cnc23)cs1 | Ephrin type-B receptor 2 (Homo sapiens, UniProt P29323) | < | 10 |
| Cn1cc(-c2cnc3c(-c4csc(C(=O)N[C@@H]5CCCC[C@@H]5N)c4)cnn3c2)cn1 (racemic) | Ephrin type-B receptor 2 (Homo sapiens, UniProt P29323) | = | 2.9 |

* * *

Target: Protein kinase C zeta type (Homo sapiens, UniProt Q05513)
Sequence (Q05513 whole entry): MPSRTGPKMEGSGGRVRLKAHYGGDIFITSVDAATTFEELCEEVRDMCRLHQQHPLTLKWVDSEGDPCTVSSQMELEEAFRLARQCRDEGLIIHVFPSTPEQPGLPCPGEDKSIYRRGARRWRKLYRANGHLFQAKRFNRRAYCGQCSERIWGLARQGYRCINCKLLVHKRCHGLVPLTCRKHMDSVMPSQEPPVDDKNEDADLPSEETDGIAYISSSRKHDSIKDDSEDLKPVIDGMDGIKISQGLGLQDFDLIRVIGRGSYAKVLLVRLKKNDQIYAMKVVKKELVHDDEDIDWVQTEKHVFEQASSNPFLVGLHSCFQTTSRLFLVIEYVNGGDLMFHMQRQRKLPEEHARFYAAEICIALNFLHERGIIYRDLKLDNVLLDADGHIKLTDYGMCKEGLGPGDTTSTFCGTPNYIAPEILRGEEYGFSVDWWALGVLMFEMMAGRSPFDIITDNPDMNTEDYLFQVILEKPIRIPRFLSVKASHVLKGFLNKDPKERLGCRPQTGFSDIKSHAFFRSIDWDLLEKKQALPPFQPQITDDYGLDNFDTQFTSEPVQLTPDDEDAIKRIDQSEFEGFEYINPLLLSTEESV
Assay: Inhibition of full-length recombinant human PRKCZ expressed in baculovirus expression system by Z'-LYTE assay

| compound | resultUnit | IC50 |
| --- | --- | --- |
| Cn1cc(-c2cnc3c(-c4csc(C(=O)N[C@@H]5CCCC[C@@H]5N)c4)cnn3c2)cn1 (racemic) | µM | 0.04 |
| Cn1cc(-c2cnc3c(-c4csc(C(=O)NCC(F)(F)F)c4)cnn3c2)cn1 | µM | 1.8 |
| O=C(NCC(F)(F)F)c1cc(-c2cnn3cc(-c4ccc(OCCN5CCCCC5)cc4)cnc23)cs1 | µM | 1.9 |
| Cc1sc(C(=O)N[C@@H]2[C@H](N)CCCC2(F)F)cc1-c1cnn2cc(Cl)cnc12 | µM | 1.1 |
